src = patent US20260334439A1

MEASURED_ON: BCAT2 (Homo sapiens, UniProt O15382)
Sequence (O15382 28-392): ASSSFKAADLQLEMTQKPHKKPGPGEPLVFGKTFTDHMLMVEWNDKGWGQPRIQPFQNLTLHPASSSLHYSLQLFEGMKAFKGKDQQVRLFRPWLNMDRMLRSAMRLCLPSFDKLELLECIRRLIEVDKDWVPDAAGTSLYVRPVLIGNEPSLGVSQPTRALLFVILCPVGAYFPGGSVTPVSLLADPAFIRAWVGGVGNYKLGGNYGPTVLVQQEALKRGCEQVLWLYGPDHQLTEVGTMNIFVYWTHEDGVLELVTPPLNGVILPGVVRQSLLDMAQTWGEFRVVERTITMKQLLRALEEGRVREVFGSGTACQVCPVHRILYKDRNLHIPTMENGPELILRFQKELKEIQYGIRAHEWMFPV
ASSAY_INFO: BCAT2 in vitro enzyme inhibition assay (hBCAT2, glutamate dehydrogenase/diaphorase/resazurin coupled fluorescence read)
Type: biochemical
PARTICULARS: hBCAT2, 1 h preincubation at 25° C., one hour reaction; average where tested multiple times
pIC50: −log10 of the molar value.
RECORDED_ENDPOINT: pIC50

COMPOUND | pIC50
CC(CCO)Cc1nc2cnc(-c3nc[nH]n3)cc2n1[C@@H]1CCC[C@H](NC(=O)c2cc(Cl)ccn2)C1 (some centres unmarked) [Example 96] | < 6.00
O=C(N[C@H]1CCC[C@@H](n2c(-c3ccccc3OC(F)F)nc3cnc(-c4nc[nH]n4)cc32)C1)c1cc(Cl)ccc1O [compound 69] | > 7.00
CCN(C)Cc1nc2cnc(-c3nc[nH]n3)cc2n1[C@@H]1CCC[C@H](NC(=O)c2cc(Cl)ccn2)C1 [Example 24] | 6.00 to 6.30
O=C1c2cc(F)ccc2CN1[C@H]1CCC[C@@H](n2c(-c3c(F)cccc3OC(F)F)nc3ccc(-c4nc[nH]n4)cc32)[C@@H]1O [compound 240] | > 7.00

Reported pIC50 for CN(C)Cc1ccc(Cl)cc1C(=O)N[C@H]1CCC[C@@H](n2c(-c3ccccc3F)nc3cnc(-c4nc[nH]n4)cc32)C1 [Example 37] was > 7.00

Reported pIC50 for CC(Oc1ccc(Cl)cc1C(=O)N[C@H]1CCC[C@@H](n2c(-c3ccccc3F)nc3cnc(-c4nc[nH]n4)cc32)C1)C(F)(F)F (some centres unmarked) [Example 88] was > 7.00

Reported pIC50 for CN1CC(NC(=O)c2cc(Cl)ccc2F)CC(n2c(-c3ncccc3F)nc3cnc(-c4nc[nH]n4)cc32)C1 (centres unmarked) [Example 147] was 6.30 to 7.00
